target_system: human trypsin isoform PRSS3 (mesotrypsin) (Homo sapiens)
Construct: made in house; host or cells: Escherichia coli BL21(DE3)
Sequence (P35030 81-304 limits assumed): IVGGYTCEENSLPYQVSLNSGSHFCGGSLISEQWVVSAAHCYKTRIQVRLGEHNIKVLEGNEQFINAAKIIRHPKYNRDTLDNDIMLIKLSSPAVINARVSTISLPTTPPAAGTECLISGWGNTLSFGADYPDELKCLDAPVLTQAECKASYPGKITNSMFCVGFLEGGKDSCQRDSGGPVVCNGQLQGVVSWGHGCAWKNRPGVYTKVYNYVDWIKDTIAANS
method_notes: Competitive inhibition kinetics of trypsin, GPR-pNA substrate
Format: biochemical
assay_conditions: Ki dabigatran, Individual fit, mean ± SD, n = 3
measurement_name: pKi
Bear in mind: pKi is minus log10 of a mol/L concentration; give just that figure.

// Input: [H]/N=C(/N)c1ccc(NCc2nc3cc(C(=O)N(CCC(=O)O)c4ccccn4)ccc3n2C)cc1 [dabigatran] . Output its pKi only.
7.45

This collection of values is drawn from paper PMC9675574.
